Where do the numbers come from? From patent US5998405A.

Items are presented alongside their recorded pIC50.
Target: ^3 H-5-hydroxytryptamine (serotonin) uptake in cortical synaptosomes (Rattus norvegicus)
Construct: Cerebral cortices from male Wistar rats (150-200 g) are homogenized
Sequence (P31652 whole entry): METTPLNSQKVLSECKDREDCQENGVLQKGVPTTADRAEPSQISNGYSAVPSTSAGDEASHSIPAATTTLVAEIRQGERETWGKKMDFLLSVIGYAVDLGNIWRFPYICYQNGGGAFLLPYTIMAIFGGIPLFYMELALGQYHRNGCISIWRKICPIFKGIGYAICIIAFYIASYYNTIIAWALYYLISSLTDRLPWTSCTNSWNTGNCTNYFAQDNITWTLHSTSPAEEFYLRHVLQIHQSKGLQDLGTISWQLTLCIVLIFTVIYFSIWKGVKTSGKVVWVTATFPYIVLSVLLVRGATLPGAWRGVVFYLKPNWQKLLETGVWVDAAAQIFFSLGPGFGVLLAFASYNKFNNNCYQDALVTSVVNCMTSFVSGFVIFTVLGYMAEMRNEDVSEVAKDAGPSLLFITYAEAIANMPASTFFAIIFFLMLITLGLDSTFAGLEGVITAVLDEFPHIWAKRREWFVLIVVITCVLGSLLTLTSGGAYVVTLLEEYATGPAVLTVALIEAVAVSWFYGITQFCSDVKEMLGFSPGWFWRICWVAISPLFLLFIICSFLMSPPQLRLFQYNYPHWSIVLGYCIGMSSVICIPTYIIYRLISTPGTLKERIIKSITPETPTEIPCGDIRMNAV
Experiment: In vitro inhibition of 3H-5-hydroxytryptamine (3H-5-HT, serotonin) uptake in cortical synaptosomes
Conditions: 3H-5-HT 1 nM, 30 min at 37° C.
Counter-ions that a name gives are not always drawn.
Entry type: numeric. Quantity: pIC50, the -log10 of concentration in molar units.

See these solved cases before continuing.
OC1CCN2[C@H]3CC[C@@H]2[C@@H]1[C@@H](c1ccc(Cl)c(Cl)c1)C3 (some centres unmarked)	8.55
CC(=O)OC1CN2[C@H]3CC[C@@H]2[C@@H]1[C@@H](c1ccc(Cl)c(Cl)c1)C3 (some centres unmarked) [acetate fumarate]	8.12
COC1CN2[C@H]3CC[C@@H]2[C@@H]1[C@@H](c1ccc(Cl)c(Cl)c1)C3 (some centres unmarked)	10.00

In: What value of pIC50 has been reported for the following molecule? `CON=C1CN2[C@H]3CC[C@@H]2[C@@H]1[C@@H](c1ccc(Cl)c(Cl)c1)C3`
Out: 8.49

In: Query (molecule): `O=C1CCN2[C@H]3CC[C@@H]2[C@@H]1[C@@H](c1ccc(Cl)c(Cl)c1)C3` ; field requested: pIC50
Out: 8.12

###

Molecular target: ^3 H-dopamine uptake in striatal synaptosomes (Rattus norvegicus)
Construct: Corpi striati from male Wistar rats (150-200 g) are homogenized
Assay: In vitro inhibition of 3H-dopamine (3H-DA) uptake in striatal synaptosomes
Details: 3H-DA 1 nM, 25 min at 37° C.
Quick reference: IC50 of the listed items.
Lab book: enter the figure in µM, no units written.

OC1CCN2[C@H]3CC[C@@H]2[C@@H]1[C@@H](c1ccc(Cl)c(Cl)c1)C3 (stereo partly drawn)	0.075

In: Which measured IC50 value corresponds to `O=C1CN2[C@H]3CC[C@@H]2[C@@H]1[C@@H](c1ccc(Cl)c(Cl)c1)C3` ?
Out: 0.12

In: Endpoint output: IC50 of `O=C1CCN2[C@H]3CC[C@@H]2[C@@H]1[C@@H](c1ccc(Cl)c(Cl)c1)C3` . Value?
Out: 0.18

###

Quick reference for IC50 among some compounds
Target: ^3 H-dopamine uptake in striatal synaptosomes (Rattus norvegicus, UniProt P23977)
Construct: Corpi striati from male Wistar rats (150-200 g) are homogenized
Sequence (P23977 whole entry): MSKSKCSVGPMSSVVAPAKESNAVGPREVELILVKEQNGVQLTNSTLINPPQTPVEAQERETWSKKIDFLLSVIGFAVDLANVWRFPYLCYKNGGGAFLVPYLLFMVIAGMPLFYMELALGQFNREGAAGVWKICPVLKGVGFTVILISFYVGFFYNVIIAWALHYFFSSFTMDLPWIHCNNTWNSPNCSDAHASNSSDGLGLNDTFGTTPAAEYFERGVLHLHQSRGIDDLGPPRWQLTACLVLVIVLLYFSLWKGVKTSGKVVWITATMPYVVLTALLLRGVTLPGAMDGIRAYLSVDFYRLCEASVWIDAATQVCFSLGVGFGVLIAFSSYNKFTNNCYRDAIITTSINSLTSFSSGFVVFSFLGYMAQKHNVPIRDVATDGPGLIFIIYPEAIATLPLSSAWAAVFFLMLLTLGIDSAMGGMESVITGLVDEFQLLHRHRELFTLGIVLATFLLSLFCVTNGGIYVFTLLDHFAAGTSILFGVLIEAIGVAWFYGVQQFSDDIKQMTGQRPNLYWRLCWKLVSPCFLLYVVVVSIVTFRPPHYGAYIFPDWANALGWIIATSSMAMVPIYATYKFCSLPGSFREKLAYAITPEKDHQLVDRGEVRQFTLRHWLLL
Experiment: In vitro inhibition of 3H-dopamine (3H-DA) uptake in striatal synaptosomes
Details: 3H-DA 1 nM, 25 min at 37° C.
Counter-ions that a name gives are not always drawn.
Provide only the numeric value, understood in nM.

In: What does the record list as IC50 for `CON=C1CCN2[C@H]3CC[C@@H]2[C@@H]1[C@@H](c1ccc(Cl)c(Cl)c1)C3` ?
Out: 12

In: Recorded IC50 of CC(=O)OC1CN2[C@H]3CC[C@@H]2[C@@H]1[C@@H](c1ccc(Cl)c(Cl)c1)C3 (some centres unmarked) [acetate fumarate] , please.
Out: 210

In: Could you tell me which IC50 is on file for COC1CN2[C@H]3CC[C@@H]2[C@@H]1[C@@H](c1ccc(Cl)c(Cl)c1)C3 (some centres unmarked) ?
Out: 22

In: Look up IC50 for this compound: `CON=C1CN2[C@H]3CC[C@@H]2[C@@H]1[C@@H](c1ccc(Cl)c(Cl)c1)C3`
Out: 16

In: Would you kindly share the measured IC50 for OC1CN2[C@H]3CC[C@@H]2[C@@H]1[C@@H](c1ccc(Cl)c(Cl)c1)C3 (some centres unmarked) ?
Out: 250
